test: Aqueous solubility (Eurofins Panlabs, HPLC-UV/Vis); format: physicochemical; conditions: aqueous buffer, kinetic from dmso stock; PBS, pH 7.4, 24 h, room temperature (Table 1)
test-readout: solubility at 24 h (µM)
Numbers only, in µM.

Hello, I would appreciate it if you could give solubility at 24 h for each entry below.
1. Cc1ccc2c3cnn(Cc4cccc(N)c4)c(=O)c3n(C)c2c1 [Compound 5]
2. Cn1c2cc([S+](C)[O-])ccc2c2cnn(Cc3cccc(N)c3)c(=O)c21 (centres unmarked) [Compound 2]

12.7
99.8

// lookup solubility at 24 h for Cn1c2cc([S+](C)[O-])ccc2c2cnn(Cc3ccccc3)c(=O)c21 (centres unmarked) [Compound 3]
12.1

* * *

target: human recombinant PKM2 (Homo sapiens, UniProt P14618); construct: purchased Sigma SAE0021; assay: Pyruvate kinase enzyme-coupled (LDH/NADH) assay with recombinant PKM2; format: biochemical; settings: recombinant human PKM2, n = 3, best-fit value ± std. error
Sequence (P14618 whole entry): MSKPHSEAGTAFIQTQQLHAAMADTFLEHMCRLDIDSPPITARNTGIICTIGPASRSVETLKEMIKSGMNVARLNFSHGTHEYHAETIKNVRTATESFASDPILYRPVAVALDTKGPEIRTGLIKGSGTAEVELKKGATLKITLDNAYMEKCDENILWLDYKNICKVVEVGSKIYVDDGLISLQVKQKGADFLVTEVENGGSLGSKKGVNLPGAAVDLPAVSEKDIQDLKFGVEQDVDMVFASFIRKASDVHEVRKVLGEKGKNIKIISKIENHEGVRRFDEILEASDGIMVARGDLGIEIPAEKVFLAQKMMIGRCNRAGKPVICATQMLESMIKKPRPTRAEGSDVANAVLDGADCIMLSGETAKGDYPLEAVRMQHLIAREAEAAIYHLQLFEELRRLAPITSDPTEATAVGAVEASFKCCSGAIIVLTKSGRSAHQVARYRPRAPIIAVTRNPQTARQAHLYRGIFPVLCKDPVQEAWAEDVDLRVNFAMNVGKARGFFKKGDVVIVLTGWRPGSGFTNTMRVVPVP
AC50 under 60 nM gets satisfied, anything at or over 60 nM gets not satisfied.

compound | class-assignment
Cn1c2cc(CNCCO)c(F)cc2c2cnn(Cc3ccccc3F)c(=O)c21 | not satisfied
Cn1c2cc([S+](C)[O-])ccc2c2cnn(Cc3cccc(N)c3)c(=O)c21 (stereo not drawn) | satisfied
Cc1cccc(Cn2ncc3c4cc(F)c(CN5CCCC5)cc4n(C)c3c2=O)n1 | not satisfied

Is the reported AC50 for Cc1cccc(Cn2ncc3c4cc(F)c(CNCCO)cc4n(C)c3c2=O)n1 strictly below 60 nM?
satisfied

Please check: AC50 for Cn1c2cc([S+](C)[O-])ccc2c2cnn(Cc3ccccc3)c(=O)c21 (stereo not drawn) , strictly under 60 nM or not?
satisfied

* * *

Exercise: state measured AC50 for each of the compounds provided.
molecular target: pyruvate kinase (PK) activity in 661W cells (Mus musculus, UniProt P52480); construct: endogenous in cells; host or cells: 661W photoreceptor-like cells; experiment: PK activity in 661W cell lysates after 2 h incubation with activator; type: cell-based; details: n = 3
Sequence (P52480 whole entry): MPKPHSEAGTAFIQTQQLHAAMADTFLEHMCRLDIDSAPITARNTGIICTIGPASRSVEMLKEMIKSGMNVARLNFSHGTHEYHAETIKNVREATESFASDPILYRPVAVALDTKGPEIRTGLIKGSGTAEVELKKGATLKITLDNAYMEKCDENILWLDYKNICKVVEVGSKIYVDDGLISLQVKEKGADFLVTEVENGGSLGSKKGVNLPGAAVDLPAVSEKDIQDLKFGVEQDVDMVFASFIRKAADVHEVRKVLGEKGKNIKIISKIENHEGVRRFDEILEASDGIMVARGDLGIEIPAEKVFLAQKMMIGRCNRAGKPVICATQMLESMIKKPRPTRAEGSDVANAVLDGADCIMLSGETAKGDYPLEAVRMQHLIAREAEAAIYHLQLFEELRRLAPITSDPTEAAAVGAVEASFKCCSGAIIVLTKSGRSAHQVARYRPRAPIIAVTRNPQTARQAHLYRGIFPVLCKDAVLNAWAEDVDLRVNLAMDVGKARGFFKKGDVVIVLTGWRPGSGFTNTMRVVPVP

Consider the worked cases shown below.
compound | assay-target | AC50
Cn1c2cc([S+](C)[O-])sc2c2cnn(Cc3cccc(N)c3)c(=O)c21 (stereo not shown) [ML-265, reference compound] | pyruvate kinase (PK) activity in 661W cells (Mus musculus, UniProt P52480) | 108 nM
Cc1cccc(Cn2ncc3c4cc(F)c(CN5CCOCC5)cc4n(C)c3c2=O)n1 [Compound 16] | pyruvate kinase (PK) activity in 661W cells (Mus musculus, UniProt P52480) | 162 nM
Cc1cccc(Cn2ncc3c4cc(F)c(CNCCO)cc4n(C)c3c2=O)n1 [Compound 17] | pyruvate kinase (PK) activity in 661W cells (Mus musculus, UniProt P52480) | 1620 nM

Shifting focus to the compound that follows.
Param item = CSc1ccc2c3cnn(Cc4cccc(N)c4)c(=O)c3n(C)c2c1 [Compound 4] ; retrieve measured AC50.
66 nM
